// reported pKd for each item listed
Assay system: human recombinant EpCAM antigen (extracellular domain, residues 1 to 265, fused with 6×His tag and Avi-tag) (human) (UniProt P16422)
Sequence (P16422 24-265 limits assumed, form in doubt): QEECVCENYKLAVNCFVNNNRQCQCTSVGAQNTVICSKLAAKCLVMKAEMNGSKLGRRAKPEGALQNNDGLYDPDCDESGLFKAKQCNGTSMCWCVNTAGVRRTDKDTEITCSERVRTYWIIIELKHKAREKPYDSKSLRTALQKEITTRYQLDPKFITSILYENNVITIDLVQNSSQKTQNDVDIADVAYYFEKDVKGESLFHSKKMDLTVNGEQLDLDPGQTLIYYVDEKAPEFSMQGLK
Assay comment: SPR (Biacore 2000), EpCAM on CM5 chip (about 367 RU), antibody 6.25-100 nM as analyte
In simple prose, pKd is minus the logarithm base ten of a concentration in moles per litre.

Here are 3 binders together with their reported answers.
Binder	pKd
ep6-Ras03 (antibody, part only; not given: RT22 heavy chain, light constant, V domains shown, not shown: another chain or arm of the molecule; a dimerising Fc or GST, chain 1: disulfide bond Cys5-Cys10 closes the Ep6 cyclic peptide) VL: NNLRCIGNICWSMGSSSNDIQMTQSPSSLSASVGDRVTITCKSSQSLLNSRDGKNYLAWYQQKPGKAPKLLIYWASTRESGVPSRFSGSGSGTDFTLTISSLQPEDFATYFCQQYWYWMYTFGQGTKVEIK	8.73
ep4-Ras03 (antibody, part only; not given: RT22 heavy chain, light constant, V domains shown, not shown: another chain or arm of the molecule; a dimerising Fc or GST, chain 1: disulfide bond Cys5-Cys10 closes the cyclic peptide) VL: EHLHCLGSLCWSMGSSSNDIQMTQSPSSLSASVGDRVTITCKSSQSLLNSRDGKNYLAWYQQKPGKAPKLLIYWASTRESGVPSRFSGSGSGTDFTLTISSLQPEDFATYFCQQYWYWMYTFGQGTKVEIK	7.91
ep3-Ras03 (antibody, part only; not given: RT22 heavy chain, light constant, V domains shown, not shown: another chain or arm of the molecule; a dimerising Fc or GST, chain 1: disulfide bond Cys5-Cys10 closes the cyclic peptide) VL: ENLQCIGNLCWSMGSSSNDIQMTQSPSSLSASVGDRVTITCKSSQSLLNSRDGKNYLAWYQQKPGKAPKLLIYWASTRESGVPSRFSGSGSGTDFTLTISSLQPEDFATYFCQQYWYWMYTFGQGTKVEIK	8.68

# context switch: different binder, same pKd
Ask | Can you share its pKd? I mean this binder: ep7-Ras03 (antibody, part only; not given: RT22 heavy chain, light constant, V domains shown, not shown: another chain or arm of the molecule; a dimerising Fc or GST, chain 1: disulfide bond Cys5-Cys10 closes the Ep7 cyclic peptide) VL: DNLRCIGNICWSMGSSSNDIQMTQSPSSLSASVGDRVTITCKSSQSLLNSRDGKNYLAWYQQKPGKAPKLLIYWASTRESGVPSRFSGSGSGTDFTLTISSLQPEDFATYFCQQYWYWMYTFGQGTKVEIK
Reply | 8.36

Data credit: patent US20190389910A1
